- system-name: human Hsp90a (heat shock protein 90 alpha), purified full-length (human) (UniProt P07900)
- method-summary: peptide or protein array
measurement-kind: pEC50
Would you please state pEC50, meaning minus log10 of the concentration in mol/L, as a bare number?

Exercise: Would you mind telling me what pEC50 value was observed for thyroid hormone receptor beta (TRb), His-tagged, from pETSUMO-TRb (from UniProt P10828 1-461) ?
Solution: 5.91
